Every entry's value here was drawn from PubChem BioAssay (NCI).

Measured TGI, listed per entry for reference.
Test system: OVCAR-8 ovarian
assay.overview: NCI tumour cell line growth inhibition, 48 h
measurement.type: TGI

>>> observed_value("COc1ccc2c(c1)-c1c(c3ccccc3n1CCN1CCCCC1)CC2")
"> 55.3 µM"
>>> observed_value("C=C(CO)[C@H]1CC/C(C)=C/CC/C(C)=C/C/C=C(\\C)[C@H](O)C1")
"35.3 µM"
>>> observed_value("Cc1nc2c(s/c(=N\\N)n2-c2ccccc2)c(=O)[nH]1")
"> 100 µM"
>>> observed_value("C#CCOC(=O)C(N)CS (centres undefined)")
"> 100 µM"
>>> observed_value("CCCN(CCC)C(=S)N/N=C/c1cccc(C)n1")
"0.729 µM"
>>> observed_value("CSC1=N/C(=C\\c2ccc(Cl)cc2)C(=O)N1CN1CCOCC1")
"61.6 µM"
>>> observed_value("[N-]=[N+]=Nc1cc(=O)n(-c2ccccc2)c(=O)n1-c1ccccc1")
"> 100 µM"
>>> observed_value("Cc1cc(Cl)ccc1NC(=O)/C(CC(=O)CC(c1ccccc1)c1c(O)c2ccccc2oc1=O)=N\\O (centres undefined)")
"> 100 µM"
>>> observed_value("Cc1ccc(C2=NN(C)COC2C(F)(F)F)cc1 (centres undefined)")
"> 100 µM"
>>> observed_value("Nc1c(C(=O)Nc2cccc3ccccc23)sc2nc3c(cc12)CCCCC3")
"> 50 µM"
>>> observed_value("NC1=NN(c2ccccc2)C(=O)C1C(=O)C(=O)Nc1cccc(C(F)(F)F)c1 (centres undefined)")
"> 100 µM"
>>> observed_value("CCCN1C(=O)/C(=C/c2ccc(O)cc2)SC1=Nc1ccccc1")
"68.8 µM"
>>> observed_value("Cc1ccc(S(=O)(=O)Oc2coc(CO)cc2=O)cc1")
"> 50 µM"
>>> observed_value("c1cc2[se][se]c3c4cccc5[se][se]c(c(c1)c23)c54")
"> 100 µM"
>>> observed_value("CO/C=C/c1cc2c(cc1C(OC)OC)OCO2")
"> 100 µM"
>>> observed_value("N=c1oc2cc(O)c(O)cc2cc1C(N)=O")
"> 100 µM"
>>> observed_value("CNC(=O)c1ccc(Nc2nc(OC3CCCC3)c3c(-c4ccc5nc(C)oc5c4)c[nH]c3n2)c(OC)c1")
"> 100 µM"
>>> observed_value("CC1CC(C)C(=O)C(C(=O)CC2CC(=O)NC2=O)C1 (centres undefined)")
"> 100 µM"
>>> observed_value("O=C1C(Br)=C(c2ccccc2)C(c2ccccc2)=C1c1ccccc1")
"4.46 µM"
>>> observed_value("CC/C(=C/OC)P1(=O)OC(C)(C)CN1C(C)(C)C (centres undefined)")
"> 100 µM"
>>> observed_value("CC1(C)CC2=NOS3=C2C(=NO3)C1c1ccccn1 (centres undefined)")
"> 100 µM"
>>> observed_value("O=C1CC(c2ccccc2)NCN1 (centres undefined)")
"> 100 µM"
>>> observed_value("CN(C)c1ccc2[nH]c(O)c(C=Nc3ccc(S(N)(=O)=O)cc3)c2c1")
"> 25 µM"
>>> observed_value("CCCCC1(OC(=O)CCC(=O)O)CCC2(CCC(C)C(C/C=C(C)/C=C/C(O)C(C)/C=C/C(=O)O)O2)OC1CC/C(C)=C/C(=O)O (centres undefined)")
"7.67 µM"
>>> observed_value("Cn1c(=S)[nH]c2c(Cl)cc(Cl)cc2c1=O")
"> 100 µM"
>>> observed_value("OC1C=C2C3CN(Cc4cc5c(cc43)OCO5)[C@H]2C[C@@H]1O (some centres undefined)")
"91.2 µM"
>>> observed_value("Cc1nn(-c2ccccc2)c2nc3c(c(C)nn3-c3ccccc3)c(-c3ccccc3Br)c12")
"> 100 µM"
>>> observed_value("Cc1nc(Cl)c(C)c(Cl)n1")
"> 100 µM"
>>> observed_value("COc1ccc(OC)c2sc(N3C(=O)/C(=C/c4ccccc4S)N=C3c3ccccc3)nc12")
"> 100 µM"
>>> observed_value("O=C1c2scnc2-c2nccc3c2c1nc1ccccc13")
"1.21 µM"
>>> observed_value("Cc1cc(Nc2nc(N3CCOCC3)nc3ccccc23)n[nH]1")
"> 100 µM"
>>> observed_value("C[N+]1(C)C2CCC1CC(OC(=O)C(CO)c1ccccc1)C2 (centres undefined)")
"> 100 µM"
>>> observed_value("COc1cc(/C=C2\\CCC(C)c3c2nc(N)c(C#N)c3-c2cc(OC)c(OC)c(OC)c2)cc(OC)c1OC (centres undefined)")
"40.3 µM"
>>> observed_value("S=C(NCCCCCCNC(=S)Nc1c2ccccc2nc2ccccc12)Nc1c2ccccc2nc2ccccc12")
"> 100 µM"
>>> observed_value("NC(=O)CC1(O)C=CC(=O)C=C1")
"> 100 µM"
>>> observed_value("N#Cc1c(C(N)=O)ncn1Cc1ccccc1")
"> 100 µM"
>>> observed_value("O=C1NC(=O)[C@H]2C3C=CC([C@@H]12)[C@@H]1C(=O)NC(=O)[C@H]31")
"> 100 µM"
>>> observed_value("O=C1OC(c2ccccc2)(c2ccccc2)CC1CN1CCOCC1 (centres undefined)")
"> 100 µM"
>>> observed_value("C=CCN1C(=O)N/C(=C\\c2ccc(Cl)cc2)C1=O")
"> 100 µM"
>>> observed_value("O=C1CC(n2cccc2)c2cc(Br)sc21 (centres undefined)")
"> 100 µM"
>>> observed_value("O=c1oc2ccccc2c(O)c1C(c1ccc2ccccc2c1)c1c(O)c2ccccc2oc1=O")
"31.6 µM"
>>> observed_value("CC1=C([Se]CC(OC(=O)[C@@H](CSSC(C)(C)C)NC(=O)C(C)(C)C)C(=O)NCCCCCC(=O)OCc2ccccc2)C(=O)c2ccccc2C1=O (some centres undefined)")
"3.78 µM"
>>> observed_value("c1ccc2c(OCC3CO3)ccc(OCC3CO3)c2c1 (centres undefined)")
"10.4 µM"
>>> observed_value("Cc1c(C(=O)Nc2ccc(Cl)c(C(F)(F)F)c2)oc2cc(O)ccc2/c1=N\\NC(N)=S")
"> 100 µM"

---

Tested on: SF-295 CNS
assay.overview: NCI tumour cell line growth inhibition, 48 h; in the data active means GI50 below about 0.43 µM; inactive means the rest
Labels: 1.0 for active, 0.0 for inactive

>>> assigned_category("Nc1c(C(=O)Nc2cccc3ccccc23)sc2nc3c(cc12)CCCCC3")
1.0
>>> assigned_category("CC1=C([Se]CC(OC(=O)[C@@H](CSSC(C)(C)C)NC(=O)C(C)(C)C)C(=O)NCCCCCC(=O)OCc2ccccc2)C(=O)c2ccccc2C1=O (stereo not given in full)")
1.0
>>> assigned_category("CC(=O)[CH-]C(C)=O.CC(=O)[CH-]C(C)=O.CC(=O)[CH-]C(C)=O.[Cl-].[Hf+4]")
0.0
>>> assigned_category("O=C(/C=C/c1ccc2c(c1)OCO2)c1ccccc1")
0.0
>>> assigned_category("N#C/C(=C\\c1ccc(Br)cc1)n1nnc2cc(F)c(F)cc21")
0.0

---

Measured TGI, listed per entry for reference.
System: SNB-19 CNS
assay.overview: NCI tumour cell line growth inhibition, 48 h
measurement.type: TGI

>>> observed_value("CCN(CC)CCCC(C)N/C(c1cccc(OC)c1)=c1\\c(=O)[nH]n(-c2c3ccccc3nc3ccccc23)c(=O)\\c1=C(/NC(C)CCCN(CC)CC)c1cccc(OC)c1 (stereo unspecified)")
"13 µM"
>>> observed_value("CC[N+](CC)(CC)Cc1cn(S(=O)(=O)c2ccccc2)c2ccccc12")
"> 100 µM"
>>> observed_value("N#Cc1c(C(N)=O)ncn1Cc1ccccc1")
"> 100 µM"
>>> observed_value("Cc1ccc(NC(=O)/C(=N/NC(=O)CC#N)C2C(=O)N(c3ccccc3)N=C2N)cc1C (stereo unspecified)")
"> 100 µM"
>>> observed_value("CC1(C)CC2=NOS3=C2C(=NO3)C1c1ccccn1 (stereo unspecified)")
"> 100 µM"
>>> observed_value("COc1cc(C(=O)O)ccc1NC(=O)[C@@H]1N[C@@H](CC(C)(C)C)[C@](C#N)(c2ccc(Cl)cc2F)[C@H]1c1cccc(Cl)c1F")
"31.2 µM"
>>> observed_value("Cc1c(Cl)c(=O)oc2cc(OCC(=O)c3ccccc3)ccc12")
"> 100 µM"
>>> observed_value("c1cncc(-c2cc(-c3cc(-c4cccnc4)n[nH]3)[nH]n2)c1")
"> 100 µM"
>>> observed_value("CCCCC1(OC(=O)CCC(=O)O)CCC2(CCC(C)C(C/C=C(C)/C=C/C(O)C(C)/C=C/C(=O)O)O2)OC1CC/C(C)=C/C(=O)O (stereo unspecified)")
"11.8 µM"
>>> observed_value("OCC1OC(O)C(N=Cc2ccc3c(c2)OCO3)C(O)C1O (stereo unspecified)")
"> 100 µM"
>>> observed_value("CC(C(O)c1ccccc1)N(C)/N=N/c1nc2c([nH]1)c(=O)n(C)c(=O)n2C (stereo unspecified)")
"> 100 µM"
